src = PubChem BioAssay (NCATS)

- run-description: qHTS of pediatric cancer cell lines to identify multiple opportunities for drug repurposing: Primary screen for LAN-5 cells (AID 1347100)
- experimental-context: LAN-5 neuroblastoma viability, CellTiter-Glo luminescence, 48 h; series mostly up to 46 µM
Inconclusive results are not listed. Activity calls are given as the source filed them. Calls follow the shape of the dose curve; as a rule, active = well fitted cell-killing curve with a large enough effect; inconclusive = small, poorly fitted or top-dose-only effect; inactive = no such curve, though single readings can be large or run the other way.
The reply should be one of these categories: active, inactive

// known answers, use as guide
molecule	answer-label
CCN(CC)CCN	inactive
CCN(CC)CC(=O)OCC(=O)[C@@]1(O)CC[C@H]2[C@@H]3CCC4=CC(=O)CC[C@]4(C)[C@H]3[C@@H](O)C[C@@]21C	inactive
CCCCC(CC)COC(=O)c1ccccc1C(=O)O (configuration not stated)	inactive
COC(=O)c1c(Cl)c(Cl)c(C(=O)OC)c(Cl)c1Cl	inactive
Cc1coc2ccccc2c1=O	inactive

Would you mind telling me which call this test gave "CN1CC(=O)N2[C@H](c3ccc4c(c3)OCO4)c3[nH]c4ccccc4c3C[C@@H]2C1=O" ? inactive

Would you mind telling me which call this test gave "Cc1onc(-c2c(Cl)cccc2Cl)c1C(=O)Cl" ? inactive

Would you mind telling me which call this test gave "CCn1ccc(NS(=O)(=O)c2ccc(N)cc2)nc1=O" ? inactive

Would you mind telling me which call this test gave "O=c1[nH]c(=O)n([C@H]2O[C@H](CO)[C@@H](O)[C@@H]2O)cc1/C=C\Br" ? inactive

Would you mind telling me which call this test gave "CC1(C)O[C@@H]2C[C@H]3[C@@H]4C[C@H](F)C5=CC(=O)C=C[C@]5(C)[C@@]4(F)[C@@H](O)C[C@]3(C)[C@]2(C(=O)CO)O1" ? inactive

Would you mind telling me which call this test gave COC(=O)C1=C(C)NC(COC(N)=O)=C(C(=O)OC(C)C)C1c1cccc(Cl)c1Cl (configuration not stated) ? inactive

Would you mind telling me which call this test gave "Cc1[nH]cnc1-c1ccc(Cl)cc1" ? inactive

Would you mind telling me which call this test gave "CN1CCC(=C2c3ccccc3CCc3cccnc32)CC1" ? inactive

Would you mind telling me which call this test gave "CCCC(=O)O[C@]1(C(=O)CC)CC[C@H]2[C@@H]3CCC4=CC(=O)CC[C@]4(C)[C@H]3[C@@H](O)C[C@@]21C" ? inactive

Would you mind telling me which call this test gave "COc1ccc2c(c1)CCCC2=O" ? inactive

Would you mind telling me which call this test gave "O=C(O)c1cn(C2CC2)c2cc(Cl)c(F)cc2c1=O" ? inactive

Would you mind telling me which call this test gave CC(=O)N(CC(O)CO)c1c(I)c(C(=O)NCCO)c(I)c(C(=O)NCC(O)CO)c1I (configuration not stated) ? inactive

Would you mind telling me which call this test gave NC(=O)COCCN1CCN(C(c2ccccc2)c2ccc(Cl)cc2)CC1 (configuration not stated) ? inactive

Would you mind telling me which call this test gave CC(Oc1c(Cl)cccc1Cl)C1=NCCN1 (configuration not stated) ? inactive

Would you mind telling me which call this test gave "Cc1onc(-c2ccccc2)c1C(=O)Cl" ? inactive

Would you mind telling me which call this test gave "COc1ccc2nc(SCc3ncc(C)c(OC)c3C)[nH]c2c1" ? inactive

Would you mind telling me which call this test gave CC1c2ccccc2CN1NC(=O)c1ccc(Cl)c(S(N)(=O)=O)c1 (configuration not stated) ? inactive
